Examples of molecules with documented pIC50 follow.
testTarget: Nonstructural protein 3 (Zika virus)
Sequence (A0A024AXB9 whole entry): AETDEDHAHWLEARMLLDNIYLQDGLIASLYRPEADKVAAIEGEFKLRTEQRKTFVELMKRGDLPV
measurementNotes: Functional biochemical assay to identify treatments for viral infectious disease that targets Zika NS2B-NS3 protease. Utilizing a direct enzyme activity measurement method, reading the fluorescence intensity is used to characterize the relative potency of inhibitors as IC50.
Design: species or system PRVABC59
pIC50: −log10 of the molar value.

Below, 6 molecules whose answers are already recorded.
NCc1cc(CC(=O)O)cc(NC(=O)c2cc(Cl)cc(NC(=O)OCc3ccccc3)c2)c1    5.10
Cc1ccc(NS(=O)(=O)c2ccc(Oc3ccccc3Cl)cc2)cc1CN    < 4.00
O=C(O)c1cc(Cl)ccc1S(=O)(=O)NC1CCN(CC2CCOCC2)CC1    < 4.00
Cc1c(C(=O)Nc2cc(C(=O)N[C@H]3CNC(=O)C3)ccn2)cc(C2CC2)n1C    < 4.60
Cc1c(C(=O)Nc2cc(C3CCOCC3)ccn2)cc(C2CC2)n1C    < 4.60
CCOc1cccc(N2CC[C@@H](CO)C2)c1    < 4.00

Next item in the queue.
Indicate its recorded pIC50; the molecule in question is "NC(=O)C1CCN(Cc2c[nH]c3ccccc23)CC1"
< 4.00

The measured values listed here are drawn from ChEMBL document CHEMBL5604062.
